Molecular target: GST-tagged FAK (Homo sapiens, UniProt Q05397)
Construct: purchased Invitrogen PV3832
Test: Biochemical assay for FAK activity, Assay 1: phosphorylation of peptide substrate with radio-labeled ATP
Conditions: 5 μM ATP, 30 min pre-incubation, read-out: Assay 1 FAK TRF PXC50 (converted)
value.kind: IC50 (nM)
One number for each entry, in nM.

Study these solved cases before continuing.
chemical.structure	target.of.assay	IC50, nM
CNC(=O)c1ccccc1Nc1cc(Nc2cc(C(C)(C)C)nn2C)ncc1Cl	GST-tagged FAK (Homo sapiens, UniProt Q05397)	2.51
CCn1nc(CO)cc1Nc1cc(Nc2ccccc2C(=O)NC)c(Cl)cn1	GST-tagged FAK (Homo sapiens, UniProt Q05397)	2.51

Could I get IC50 for every one of these entries?
1. CCNC(=O)c1ccccc1Nc1cc(Nc2cc(C)nn2C(C)C)ncc1Cl
2. CNC(=O)c1cc(F)ccc1Nc1cc(Nc2cc(C)nn2C)ncc1Cl
3. CNC(=O)c1ccccc1Nc1cc(Nc2cc(C3CC3)nn2C)ncc1Cl
4. CCOC(=O)c1cc(Nc2cc(Nc3ccccc3C(=O)NC)c(Cl)cn2)n(CC)n1

1. 10
2. 0.794
3. 1.26
4. 1.26

====

Give measured IC50 for each item. Keep answers brief.
Target: Full length Human FAK (Flag-His-TEV-FAK1) (Homo sapiens, UniProt Q05397)
Construct: Full length Human FAK was expressed using baculovirus in Sf9 cells; made in house; host or cells: baculovirus in Sf9 cells
Sequence (Q05397 whole entry): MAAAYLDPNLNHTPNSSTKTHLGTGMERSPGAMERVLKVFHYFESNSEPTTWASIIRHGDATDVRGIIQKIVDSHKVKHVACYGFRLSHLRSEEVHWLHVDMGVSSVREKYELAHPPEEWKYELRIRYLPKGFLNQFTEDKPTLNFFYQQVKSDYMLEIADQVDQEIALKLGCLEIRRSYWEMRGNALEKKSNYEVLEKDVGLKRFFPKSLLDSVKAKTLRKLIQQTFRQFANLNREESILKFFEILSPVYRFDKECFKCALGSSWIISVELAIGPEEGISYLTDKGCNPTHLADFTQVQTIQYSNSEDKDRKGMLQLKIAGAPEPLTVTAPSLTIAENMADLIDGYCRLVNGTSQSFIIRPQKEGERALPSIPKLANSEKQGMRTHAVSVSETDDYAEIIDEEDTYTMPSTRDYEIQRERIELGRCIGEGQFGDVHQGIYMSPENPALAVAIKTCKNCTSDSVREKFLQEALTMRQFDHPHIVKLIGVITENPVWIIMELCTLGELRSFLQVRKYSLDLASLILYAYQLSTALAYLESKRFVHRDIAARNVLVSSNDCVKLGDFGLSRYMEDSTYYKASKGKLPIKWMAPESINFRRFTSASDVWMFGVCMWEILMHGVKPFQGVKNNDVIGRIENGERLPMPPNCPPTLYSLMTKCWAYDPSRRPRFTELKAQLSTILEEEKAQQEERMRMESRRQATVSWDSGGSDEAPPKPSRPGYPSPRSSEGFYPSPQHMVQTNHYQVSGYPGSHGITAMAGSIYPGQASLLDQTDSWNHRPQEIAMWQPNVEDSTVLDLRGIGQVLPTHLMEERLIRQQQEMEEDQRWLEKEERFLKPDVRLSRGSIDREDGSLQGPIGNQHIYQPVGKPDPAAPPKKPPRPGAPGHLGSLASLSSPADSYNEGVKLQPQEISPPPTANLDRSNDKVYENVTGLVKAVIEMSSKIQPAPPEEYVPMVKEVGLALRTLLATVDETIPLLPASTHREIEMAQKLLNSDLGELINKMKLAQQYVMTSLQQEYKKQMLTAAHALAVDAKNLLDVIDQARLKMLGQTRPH
Assay: Biochemical assay for FAK activity, Assay 2: LANCE Ultra ULight peptide phosphorylation, 665 nm/615 nm ratio
Details: Flag-His-TEV-FAK1, 10 μM ATP, 30 min pre-incubation; read-out: Assay 2 FAK H 31284A TRF PXC50 (converted)
Answers are plain numbers, in nM.

Study these solved cases before continuing.
molecule	target.of.assay	IC50 [nM]
CONC(=O)c1cccc(F)c1Nc1cc(Nc2cc(CO)nn2C)ncc1Cl [Example 95d]	Full length Human FAK (Flag-His-TEV-FAK1) (Homo sapiens, UniProt Q05397)	20
CCn1nc(C)cc1Nc1cc(Nc2c(F)cccc2C(=O)NOC)c(Cl)cn1 [Example 95a]	Full length Human FAK (Flag-His-TEV-FAK1) (Homo sapiens, UniProt Q05397)	1.58
CNC(=O)c1cccc(F)c1Nc1cc(Nc2cc(CCO)nn2C)ncc1Cl [Example 89]	Full length Human FAK (Flag-His-TEV-FAK1) (Homo sapiens, UniProt Q05397)	10
CCn1nc(C)cc1Nc1cc(Nc2cc(F)ccc2C(=O)NC)c(Cl)cn1 [Example 88]	Full length Human FAK (Flag-His-TEV-FAK1) (Homo sapiens, UniProt Q05397)	2.51
CONC(=O)c1ccc(Cl)cc1Nc1cc(Nc2cc(C)nn2C(C)C)ncc1Cl [Example 69]	Full length Human FAK (Flag-His-TEV-FAK1) (Homo sapiens, UniProt Q05397)	2.51

Could I get IC50 for every one of these entries?
1. CNC(=O)c1ccccc1Nc1cc(Nc2ccnn2C)ncc1Cl [Example 2]
2. CCNC(=O)c1ccccc1Nc1cc(Nc2cc(C)nn2CC)ncc1Cl [Example 42]
3. CCn1nc(C)cc1Nc1cc(Nc2ccccc2C(=O)NOC)c(Cl)cn1 [Example 39]
4. CNC(=O)c1cccc(F)c1Nc1cc(Nc2cc(CN(C)C)nn2C)ncc1Cl [Example 91]

[10, 50.1, 5.01, 251]

====

Molecular target: Full length Human FAK (Flag-His-TEV-FAK1) (Homo sapiens)
Construct: Full length Human FAK was expressed using baculovirus in Sf9 cells; made in house; host or cells: baculovirus in Sf9 cells
Assay: Biochemical assay for FAK activity, Assay 2: LANCE Ultra ULight peptide phosphorylation, 665 nm/615 nm ratio
Details: Flag-His-TEV-FAK1, 10 μM ATP, 30 min pre-incubation; read-out: Assay 2 FAK H 31284A TRF PXC50 (converted)
just bin them by IC50: low band (below 6 nM), middle band (6 nM to below 30 nM), high band (30 nM or more)

// known answers, use as guide
molecule	discrete.label
CNC(=O)c1cccc(F)c1Nc1cc(Nc2cc(CO)nn2C)ncc1C(F)(F)F [Example 80]	middle band
CCn1nccc1Nc1cc(Nc2ccccc2C(=O)NOC)c(Cl)cn1 [Example 40]	low band
CCONC(=O)c1ccccc1Nc1cc(Nc2cc(C)nn2CC)ncc1Cl [Example 64]	high band
CCn1nc(CN(C)C)cc1Nc1cc(Nc2c(F)cccc2C(=O)NOC)c(Cl)cn1 [Example 95e]	high band
CNC(=O)c1ccccc1Nc1cc(Nc2cc(C)nn2CC(F)(F)F)ncc1Cl [Example 21]	high band
CCNC(=O)c1ccccc1Nc1cc(Nc2cc(C)nn2C)ncc1Cl [Example 43]	middle band
CNC(=O)c1cc(N2CCN(CCO)CC2)ccc1Nc1cc(Cl)ncc1Cl [Example 66]	high band
CNC(=O)c1cc(F)c(F)cc1Nc1cc(Nc2cc(C)nn2C)ncc1Cl [Example 9]	middle band

Would you mind sorting Cc1cc(Nc2cc(Nc3ccccc3C(=O)NOCCN(C)C)c(Cl)cn2)n(C)n1 [Example 38] into the appropriate category?
high band

====

Give measured log10 IC50 for each item. Keep answers brief.
Target: Full length Human FAK (Flag-His-TEV-FAK1) (Homo sapiens)
Construct: Full length Human FAK was expressed using baculovirus in Sf9 cells; made in house; host or cells: baculovirus in Sf9 cells
Assay: Biochemical assay for FAK activity, Assay 2: LANCE Ultra ULight peptide phosphorylation, 665 nm/615 nm ratio
Conditions: Flag-His-TEV-FAK1, 10 μM ATP, 30 min pre-incubation; read-out: Assay 2 FAK H 31284A TRF PXC50 (converted)
Transform log10 | Measure IC50 | Unit nM

chemical.structure	log10 IC50
CNC(=O)c1cc(F)ccc1Nc1cc(Nc2cc(C)nn2C(C)C)ncc1Cl	1.80
CCn1nc(C)cc1Nc1cc(Nc2ccccc2C(=O)NOC)c(C2CC2)cn1	1.20
CONC(=O)c1ccccc1Nc1cc(Nc2cnn(C)c2C)ncc1Cl	0.40

Could I get log10 IC50 for every one of these entries?
1. CCn1nc(CCN2CCCC2)cc1Nc1cc(Nc2ccccc2C(=O)NC)c(Cl)cn1
2. CCn1nc(COC)cc1Nc1cc(Nc2ccccc2C(=O)NC)c(Cl)cn1
3. CNC(=O)c1ccc(F)cc1Nc1cc(Nc2cc(C)nn2C)ncc1Cl
4. CNC(=O)c1ccccc1Nc1cc(Nc2cc(C)nn2C)ncc1C1CC1
5. CNC(=O)c1cc(Cl)ccc1Nc1cc(Nc2cc(C)nn2C)ncc1Cl
6. CNC(=O)c1ccccc1Nc1cc(Nc2cc(C)nn2C)ncc1C(F)(F)F

1: 1.10; 2: 1.10; 3: 0.40; 4: 1.60; 5: 0.80; 6: 0.40

====

Give measured log10 of IC50 for each item. Keep answers brief.
Molecular target: Full length Human FAK (Flag-His-TEV-FAK1) (Homo sapiens, UniProt Q05397)
Construct: Full length Human FAK was expressed using baculovirus in Sf9 cells; made in house; host or cells: baculovirus in Sf9 cells
Experiment: Biochemical assay for FAK activity, Assay 2: LANCE Ultra ULight peptide phosphorylation, 665 nm/615 nm ratio
Conditions: Flag-His-TEV-FAK1, 10 μM ATP, 30 min pre-incubation; read-out: Assay 2 FAK H 31284A TRF PXC50 (converted)
Transform log10 | Measure IC50 | Unit nM

Study these solved cases before continuing.
molecule	log10 of IC50
CCn1nc(CN(C)C)cc1Nc1cc(Nc2c(F)cccc2C(=O)NC)c(Cl)cn1 [Example 92]	2.70
CONC(=O)c1ccc(F)cc1Nc1cc(Nc2cc(C)nn2C(C)C)ncc1Cl [Example 73]	0.10
Cc1cc(Nc2cc(Nc3ccc(F)cc3C(=O)N3CCCN3)c(Cl)cn2)n(C(C)C)n1 [Example 96a]	4.30
Cc1cc(Nc2cc(Nc3ccc(F)cc3C(=O)N3CCCN3C)c(Cl)cn2)n(C(C)C)n1 [Example 96b]	3.30
CCn1nc(CO)cc1Nc1cc(Nc2ccccc2C(=O)NC)c(Cl)cn1 [Example 15]	1.30
CCn1nc(C)cc1Nc1cc(Nc2c(F)cccc2C(=O)NC)c(Cl)cn1 [Example 74]	0.50
CNC(=O)c1ccccc1Nc1cc(Nc2cc(C)nn2CCN(C)C)ncc1Cl [Example 23]	2.30
CCn1nc(C(=O)N(C)CCN(C)C)cc1Nc1cc(Nc2ccccc2C(=O)NC)c(Cl)cn1 [Example 25]	1.50

Could I get log10 of IC50 for every one of these entries?
1. CNC(=O)c1ccccc1Nc1cc(Nc2ccnn2C2CCN(C)CC2)ncc1Cl [Example 22]
2. CNC(=O)c1ccc(F)cc1Nc1cc(Nc2cc(C)nn2C(C)C)ncc1Cl [Example 86]
3. CNC(=O)c1ccccc1Nc1cc(Nc2cc(C)nn2C)ncc1Cl [Example 5]
4. CNC(=O)c1ccccc1Nc1cc(Nc2cc(C3CC3)nn2C)ncc1Cl [Example 6]
5. CCNC(=O)c1ccccc1Nc1cc(Nc2cc(C)nn2C(C)C)ncc1Cl [Example 45]
6. CONC(=O)c1cc(F)ccc1Nc1cc(Nc2cc(C)nn2C(C)C)ncc1Cl [Example 71]
7. CONC(=O)c1cccc(F)c1Nc1cc(Nc2cnn(C)c2C)ncc1Cl [Example 95f]
8. CCn1nc(CCO)cc1Nc1cc(Nc2c(F)cccc2C(=O)NC)c(Cl)cn1 [Example 90]

[2.40, 0.20, 0.90, 0.70, 1.80, 0.80, 0.30, 1.00]

These measurements were taken from patent US20140155410A1.
